Test system: NCI-H23
MEASUREMENT_NOTES: NCI tumour cell line growth inhibition, 48 h
The source made the active and inactive calls. Cut-off read from the data, not from the text of the source: active = GI50 up to about 1.1 µM and inactive = higher.
Possible outcomes: active, inactive

| COMPOUND | CATEGORY_LABEL |
| --- | --- |
| COC(=O)/C=C/[C@@H]1[C@H](C)N1S(=O)(=O)c1ccc(C)cc1 (stereo partly specified) | inactive |
| O=C(CC(C(=O)c1ccc(F)cc1)c1ccsc1)c1cccs1 (stereo unspecified) | inactive |
| O=[N+]([O-])c1cccc(CSc2nc(O)c3nc[nH]c3n2)c1 | inactive |
| CC(C)(C)C1=C(Br)C(OC(=O)C(F)(F)F)(C(C)(C)C)OP1(=O)c1ccccc1 (stereo unspecified) | inactive |
| Cc1cccc(-c2cc(O)c3ccc(C)nc3n2)c1 | active |
| C1=C\SS/C=C\SS/1 | inactive |
| CCOc1ccccc1NC(=O)C1=C(C)NC(C)=C(C(=O)Nc2ccccc2OCC)C1c1ccc([N+](=O)[O-])cc1 | inactive |
| O=C(O)/C(=C/c1c(O)ccc2ccccc12)c1csc(-c2nc(/C(=C\c3c(O)ccc4ccccc34)C(=O)O)cs2)n1 | inactive |
| COC(=O)/C(=C\c1cn(C(C)=O)c2ccccc12)P(=O)(OC)OC | inactive |
| CCOC(=O)C(C(=O)OCC)=C1NC2(c3ccccc3Nc3ccccc32)C(C#N)S1 (stereo unspecified) | inactive |
| CCOC(=O)C1=C(N)N2C(=N[C@H]3CCCC[C@@H]32)N=C1 | inactive |
| Cc1ccc(NC(Nc2ccc(C)cc2C)=C(/C=C(\Cl)[N+](=O)[O-])[N+](=O)[O-])c(C)c1 | inactive |
| O=[N+]([O-])c1ccc2c3ccccc3[s+]([O-])c2c1 (stereo unspecified) | inactive |
| CN(CCNC(=O)c1nn(-c2ccccc2)c2c1Cc1ccccc1-2)CCNC(=O)c1nn(-c2ccccc2)c2c1Cc1ccccc1-2 | inactive |
| Oc1ccccc1/C=N/c1ccccc1/N=C/c1ccccc1O | inactive |
| CC12CCCCC1=C(F)C(F)(F)S2 (stereo unspecified) | inactive |
| NCCSC(c1ccccc1)c1ccccc1 | inactive |
| O=C1CC(CC(O)C(O)CO)CC(=O)N1 (stereo unspecified) | inactive |
| O=[N+]([O-])c1ccc([I+]c2ccccc2)cc1 | inactive |
| CSc1ncc2c(C#N)c3[nH]c4ccccc4n3c(=O)c2n1 | inactive |
| O=c1cc[nH]c2ccc3nn[nH]c3c12 | inactive |
| O=C(CSc1nnc(-c2ccc(/N=C\c3ccc(Cl)cc3)cc2)o1)Nc1cccc(Cl)c1 | inactive |
| CC1=C(C)C(=O)O[C@@H]([C@](C)(O)[C@]2(O)CC[C@@]3(O)[C@@H]4C[C@H](O)[C@]5(O)[C@@H](O)C=CC(=O)[C@]5(C)[C@H]4CC[C@]23C)C1 | inactive |
| O=C(Nc1nc2ncn(CCNCCn3cnc4nc(NC(=O)c5ccccc5)[nH]c(=O)c43)c2c(=O)[nH]1)c1ccccc1 | inactive |
| CCN(CC)c1ccc2cc(C(=O)Nc3ccccn3)c(=N)oc2c1 | inactive |
| Cn1c2c(cc(-c3ccccc3)c1=O)COc1ccccc1-2 | inactive |
| O=C1c2cccc(NCCCNCCO)c2C(=O)c2cccc(NCCCNCCO)c21 | inactive |
| N=CCCN(CCC=N)c1ccc(/C=C2\CN(NC(=O)c3ccc(Cl)cc3)C(c3ccccc3)=N2)cc1 | inactive |
| COC(=O)n1c(=O)nc2c3c(ncn21)Oc1c(c(-c2ccccc2)nn1-c1ccccc1)C3c1ccc(Cl)cc1 (stereo unspecified) | inactive |
| N#Cc1ccc2[nH]c3c(c2c1)CC(=O)Nc1ccccc1-3 | inactive |
| CN(C)c1ccc(/C=C2\N=C(N/N=C/c3ccccc3)NC2=O)cc1 | inactive |
| OC1(C2(c3ccc(Cl)cc3)CCCC2)c2ccccc2C2=NCCN21 (stereo unspecified) | inactive |
| O=C1c2cccc(NCCNCCO)c2C(=O)c2cccc(NCCNCCO)c21 | inactive |
| COc1cc2c3cc1Oc1c(O)c(OC)cc4c1[C@H](Cc1ccc(cc1)Oc1cc(ccc1O)C[C@H]3N(C)CC2)N(C)CC4 | inactive |
| N#CN1C2CCC1CC(=O)C2 | inactive |
| CN(C)CCOc1ccc2[nH]c(C(=O)N3CC(CCl)c4ccc(N)cc43)cc2c1 (stereo unspecified) | active |
| S=C1NC(c2ccccc2)NC(c2ccccc2)S1 (stereo unspecified) | inactive |
| NC(=S)N/N=C/C1NCCC2CCCCC21 (stereo unspecified) | active |
| N/C(=N\n1c(=S)[nH]c2ccccc2c1=O)Nn1c(=S)[nH]c2ccccc2c1=O | inactive |
| CCCOc1ccc(-c2nc(-c3ccc(/N=C/c4ccc(N(CCOS(C)(=O)=O)CCOS(C)(=O)=O)cc4C)cc3)cs2)cc1 | inactive |
| COC(=O)C1(O)CC(=O)CCC1c1ccc(OC)cc1 (stereo unspecified) | inactive |

----------
Tested on: UACC-257
MEASUREMENT_NOTES: NCI tumour cell line growth inhibition, 48 h
The source made the active and inactive calls. Rule as the data show it: active = GI50 up to about 1.1 µM and inactive = higher.
QUANTITY_MEASURED: GI50

| COMPOUND | MEASURED_ON | TEST_RESULT |
| --- | --- | --- |
| COC(=O)c1ccc(NCC2=CC(=O)c3ccccc3C2=O)cc1 | UACC-257 | 14.3 µM (inactive) |
| CCOC(=O)CC1c2ccc(O)cc2OC(=O)C1c1ccc([N+](=O)[O-])cc1 (stereo not given) | UACC-257 | 28.8 µM (inactive) |
| O=C1Oc2ccccc2C(=O)/C1=C/N1C(=O)/C(=C/c2ccc([N+](=O)[O-])cc2)SC1=S | UACC-257 | 25.8 µM (inactive) |
| COc1ccc2oc(C(=O)N3CC(CCl)c4ccc([N+](=O)[O-])cc43)cc2c1 (stereo not given) | UACC-257 | > 100 µM (inactive) |
| COc1cc2c(cc1OC)[C@@](C)(C(O)C(O)C(C)(C)O)NCC2 (stereo not given in full) | UACC-257 | > 100 µM (inactive) |

----------
System: M14
MEASUREMENT_NOTES: NCI tumour cell line growth inhibition, 48 h
Calls of active or inactive are those of the source. No stated cut-off is given here; in the data, active = GI50 up to about 1.1 µM and inactive = higher. Where a SMILES comes first, the peptide text is derived from it. [ ]: non-standard residue; d: D form. Phe(4-NO2) = N[CH](Cc1ccc([N+](=O)[O-])cc1)C(=O)O
Possible outcomes: active, inactive

| COMPOUND | CATEGORY_LABEL |
| --- | --- |
| Cc1ccc(NC(=S)N/N=C(/c2ccccc2)c2ccccn2)cc1 | active |
| CN(C)CCCn1c2c3ccccc3ccc2c2oc(=O)c3ccccc3c21 | inactive |
| CC(C)(C)OCC1NC(=O)[C@@H]2Cc3c([nH]c4ccccc34)C(c3ccccc3)N2C1=O (some centres undefined) | inactive |
| CC(=O)Nc1ccccc1C=C1c2ccccc2-c2ccccc21 | inactive |
| OCC1OC(c2cccc3cc(O)c(O)cc23)CC1O (centres undefined) | inactive |
| O=c1c2c3c(sc2nc2n1N=CN(c1ccccc1)C2)CCCC3 | inactive |
| CC(NC(=O)C(Cc1ccc([N+](=O)[O-])cc1)NC(=O)C(N)CCCCN)C(=O)NC(Cc1ccc([N+](=O)[O-])cc1)C(N)=O (centres undefined) (H-K[Phe(4-NO2)]A[Phe(4-NO2)]-NH2; configuration not given here) | inactive |
| COC(=O)C(C(=O)C(=O)Nc1nc2ccc(OC)cc2s1)c1cnc2ccccc2n1 (centres undefined) | inactive |
| Cc1cccc2c1C(=O)/C(=C/c1ccccc1C(=O)O)C2 | inactive |
| C1=N\c2ccc(cc2)-c2ccc(cc2)/N=C\c2ccccc2OCc2cccc(n2)COc2ccccc2/1 | inactive |
| COC(=O)CNC(=O)C(CSC(=O)OCC1c2ccccc2-c2ccccc21)NC(=O)CCC(NC(=O)OCC1c2ccccc2-c2ccccc21)C(=O)OC (centres undefined) | inactive |
| COc1ccc(/C=N/c2ccc(-c3nc4ccccc4[nH]3)cc2)cc1OC | inactive |
| COc1cc(C2S/C(=C/c3ccccc3)C(=O)N2c2cc(Cl)ccc2Cl)cc(OC)c1OC (centres undefined) | inactive |
| c1ccc(C2OCCO2)c(OCCOc2cc(OCCOc3ccccc3C3OCCO3)c(OCCOc3ccccc3C3OCCO3)cc2OCCOc2ccccc2C2OCCO2)c1 | inactive |
| N#CCC1COc2ccccc2O1 (centres undefined) | inactive |
| CC(=O)Nc1n[n+]([O-])c2cc(C)ccc2[n+]1[O-] | inactive |
| Nc1ccccc1-c1noc(=O)[nH]1 | inactive |
| Cc1ccc(NC(Nc2ccc(C)cc2C)=C(/C=C(\Cl)[N+](=O)[O-])[N+](=O)[O-])c(C)c1 | inactive |
| COc1ccc(/C=N/n2c(Cc3ccc(Cl)cc3)n[nH]c2=O)cc1 | inactive |

Data credit: ChEMBL document CHEMBL1201862
